experimentalSystem: T1, SNX6 PX domain (UniProt Q9UNH7 26-173)
T1 sequence: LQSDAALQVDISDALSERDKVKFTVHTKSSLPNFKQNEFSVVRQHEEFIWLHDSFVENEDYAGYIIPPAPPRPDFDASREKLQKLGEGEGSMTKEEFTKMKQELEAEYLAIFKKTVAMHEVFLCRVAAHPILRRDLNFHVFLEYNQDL
testDetails: ITC
pKd: −log10 of the molar value.
propertyLabel: pKd

binder | observedValue
SNVSYKYSKVNKEEETDENETEWLMEEIQ [CI-MPR peptide (residues 2347-2375)] | 4.62
